Entry source: patent US9567322B2

# System Under Test: F508delCFTR (Homo sapiens, UniProt P13569, DEL508-508)
# Sequence (P13569 with tags, fused parts or gaps DEL508-508): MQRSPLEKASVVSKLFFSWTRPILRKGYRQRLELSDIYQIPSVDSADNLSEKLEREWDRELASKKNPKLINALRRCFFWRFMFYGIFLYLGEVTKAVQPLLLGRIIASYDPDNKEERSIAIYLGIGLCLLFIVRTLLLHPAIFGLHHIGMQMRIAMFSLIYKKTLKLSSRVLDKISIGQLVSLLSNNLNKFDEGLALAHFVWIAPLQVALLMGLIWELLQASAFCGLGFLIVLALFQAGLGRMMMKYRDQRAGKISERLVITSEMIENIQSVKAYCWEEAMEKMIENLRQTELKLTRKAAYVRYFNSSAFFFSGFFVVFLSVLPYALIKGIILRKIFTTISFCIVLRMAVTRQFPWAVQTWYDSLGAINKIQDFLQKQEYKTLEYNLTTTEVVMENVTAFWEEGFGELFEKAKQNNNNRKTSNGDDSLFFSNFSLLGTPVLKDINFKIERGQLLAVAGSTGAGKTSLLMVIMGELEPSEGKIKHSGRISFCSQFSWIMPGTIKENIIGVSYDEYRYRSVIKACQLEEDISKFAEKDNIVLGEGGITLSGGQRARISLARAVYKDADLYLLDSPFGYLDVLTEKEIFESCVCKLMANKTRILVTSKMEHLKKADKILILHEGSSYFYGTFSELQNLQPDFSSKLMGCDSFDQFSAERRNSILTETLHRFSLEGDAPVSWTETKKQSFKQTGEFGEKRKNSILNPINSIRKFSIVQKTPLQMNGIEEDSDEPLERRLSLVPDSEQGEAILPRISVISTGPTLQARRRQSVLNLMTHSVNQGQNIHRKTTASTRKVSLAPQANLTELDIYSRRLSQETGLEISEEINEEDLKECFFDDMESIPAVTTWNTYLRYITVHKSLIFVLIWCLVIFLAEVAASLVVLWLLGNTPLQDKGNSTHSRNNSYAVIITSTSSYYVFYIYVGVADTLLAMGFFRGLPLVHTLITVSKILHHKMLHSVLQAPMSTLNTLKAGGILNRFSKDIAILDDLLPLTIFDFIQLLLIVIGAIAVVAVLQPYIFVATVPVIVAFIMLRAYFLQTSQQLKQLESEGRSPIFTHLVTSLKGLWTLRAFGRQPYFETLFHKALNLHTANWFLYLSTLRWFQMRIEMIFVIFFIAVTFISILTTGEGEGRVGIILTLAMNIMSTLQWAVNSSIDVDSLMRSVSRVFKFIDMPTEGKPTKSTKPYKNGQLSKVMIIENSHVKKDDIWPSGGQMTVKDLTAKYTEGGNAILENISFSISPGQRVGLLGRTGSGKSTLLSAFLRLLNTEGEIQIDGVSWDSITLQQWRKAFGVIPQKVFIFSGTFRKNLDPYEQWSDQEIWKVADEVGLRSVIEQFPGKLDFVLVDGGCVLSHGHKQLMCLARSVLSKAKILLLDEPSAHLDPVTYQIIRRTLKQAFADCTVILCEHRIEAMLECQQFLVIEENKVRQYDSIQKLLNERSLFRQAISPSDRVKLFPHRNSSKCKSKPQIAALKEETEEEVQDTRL
# Assay Explanation: Cell Surface Expression-Horse Radish Peroxidase (CSE-HRP) assay
# Test Settings: CFBE41o-F508delCFTR-HRP cells, cell surface expression, luminescence readout; 18-24 hours at 33° C.; highest concentration tested 20 μM, 8-point curve
# Experimental: Cell Surface Expression-Horse Radish Peroxidase (CSE-HRP) Assay: A cellular assay for measuring the F508delCFTR cell surface expression after correction with test compounds was developed in human lung derived epithelial cell line (CFBE41o-) (Veit G et al, (2012) Mol Biol Cell. 23(21): 4188-4202). […] The raw counts from the experiment are analyzed using Accelrys® Assay Explorer v3.3. […]
pEC50: −log10 of the molar value.
Reported Property: pEC50

Consider the worked cases shown below.
- Compound: "CC1(C)C[C@H](NC(=O)C2(c3ccc4c(c3)OC(F)(F)O4)CC2)C[C@H](c2ccc(C(=O)O)cc2)O1 (racemic)"
  Value Observed: 5.54
- Compound: "O=C(N[C@H]1CCO[C@@H](c2ccccc2)C1)C1(c2ccc3c(c2)OC(F)(F)O3)CC1 (racemic)"
  Value Observed: 5.77
- Compound: "CC1(C)C[C@@H](NC(=O)C2(c3ccc4c(c3)OC(F)(F)O4)CC2)C[C@H](c2ccc(C(=O)O)cc2)O1 (racemic)"
  Value Observed: 5.41
- Compound: "COC(=O)c1ccc([C@H]2C[C@@H](NC(=O)C3(c4ccc5c(c4)OC(F)(F)O5)CC3)C[C@@H](c3ccccc3)O2)c(F)c1 (racemic)"
  Value Observed: 6.07
- Compound: "Cc1cc(C(=O)O)ccc1[C@@H]1C[C@H](NC(=O)C2(c3ccc4c(c3)OC(F)(F)O4)CC2)CCO1 (stereo in doubt)"
  Value Observed: 5.16
- Compound: "COC(=O)c1ccc([C@@H]2C[C@H](NC(=O)C3(c4ccc5c(c4)OC(F)(F)O5)CC3)CCO2)c(C)c1 (single isomer, unassigned)"
  Value Observed: 5.68

A. Cc1ccc(C(=O)O)cc1[C@H]1C[C@@H](NC(=O)C2(c3ccc4c(c3)OC(F)(F)O4)CC2)C[C@@H](c2ccccc2)O1 (racemic)
B. C[C@H]1C[C@@H](NC(=O)C2(c3ccc4c(c3)OC(F)(F)O4)CC2)C[C@@H](c2ccc(C(=O)O)cc2)O1 (single isomer, unassigned)
C. Cc1cc(C(=O)O)ccc1[C@H]1C[C@@H](NC(=O)C2(c3ccc4c(c3)OC(F)(F)O4)CC2)CCO1 (stereo in doubt) [Example 43]
Arrange by pEC50, high to low. Form entry: labels listed in requested order. C, A, B

====

# System Under Test: F508delCFTR (Homo sapiens, UniProt P13569, DEL508-508)
# Construct: expressed in transfected cells; host or cells: CFBE41o- (CFBE41o-F508delCFTR-HRP), doxycycline-inducible
# Assay Explanation: Cell Surface Expression-Horse Radish Peroxidase (CSE-HRP) assay
# Assay type: cell-based
# Test Settings: CFBE41o-F508delCFTR-HRP cells; maximum at any tested concentration, normalized to on-plate positive control (3 μM) and DMSO
Reported Property: Maximum % activity (%)

P. CC1(C)C[C@@H](NC(=O)C2(c3ccc4c(c3)OC(F)(F)O4)CC2)C[C@H](c2ccc(C(=O)O)cc2)O1 (racemic)
Q. COC(=O)c1ccc([C@H]2C[C@H](NC(=O)C3(c4ccc5c(c4)OC(F)(F)O5)CC3)C[C@@H](C)O2)cc1 (racemic)
Just curious, which one has the larger Maximum % activity reading, P or Q ? Bench note: the answer is the label of the chosen record. P
(P: 102%, Q: 67%)

a. COC(=O)c1ccc([C@H]2C[C@@H](NC(=O)C3(c4ccc5c(c4)OC(F)(F)O5)CC3)C[C@@H](c3ccccc3)O2)c(C)c1 (racemic)
b. COC(=O)c1cccc([C@@H]2C[C@H](NC(=O)C3(c4ccc5c(c4)OC(F)(F)O5)CC3)CCO2)c1
c. O=C(O)c1cccc([C@H]2C[C@@H](NC(=O)C3(c4ccc5c(c4)OC(F)(F)O5)CC3)CCO2)c1 (racemic) [Example 2]
d. CC(C)(O)c1cccc([C@H]2C[C@H](NC(=O)C3(c4ccc5c(c4)OC(F)(F)O5)CC3)CCO2)c1 (racemic)
// smallest Maximum % activity at index 0, largest at the end Would you mind listing the labels in the order asked for? d, b, c, a

====

# System Under Test: F508delCFTR (Homo sapiens, UniProt P13569, DEL508-508)
# Construct: expressed in transfected cells; host or cells: CFBE41o- (CFBE41o-F508delCFTR-HRP), doxycycline-inducible
# Assay Explanation: Cell Surface Expression-Horse Radish Peroxidase (CSE-HRP) assay
# Format: cell-based
# Test Settings: CFBE41o-F508delCFTR-HRP cells; maximum at any tested concentration, normalized to on-plate positive control (3 μM) and DMSO
Reported Property: Maximum % activity (%)

1. COC(=O)c1cccc([C@H]2C[C@@H](NC(=O)C3(c4ccc5c(c4)OC(F)(F)O5)CC3)CCO2)c1 (racemic) [Example 3]
2. COC(=O)c1cccc([C@H]2C[C@@H](NC(=O)C3(c4ccc5c(c4)OC(F)(F)O5)CC3)C[C@@H](c3ccccc3)O2)c1 (racemic)
API: POST /compare with 1 and 2 ; response names the item with higher Maximum % activity. I would appreciate it if you answered with the label of your choice. 2
(2: 104%, 1: 64%)

I. C[C@@H]1C[C@H](NC(=O)C2(c3ccc4c(c3)OC(F)(F)O4)CC2)C[C@H](c2ccc(C(=O)O)cc2)O1 (racemic) [Example 45]
II. COC(=O)c1ccc([C@H]2C[C@H](NC(=O)C3(c4ccc5c(c4)OC(F)(F)O5)CC3)CC(C)(C)O2)cc1 (racemic)
API: POST /compare with I and II ; response names the item with higher Maximum % activity. Indicate which entry you chose by stating its label. I
(I: 101%, II: 69%)

====

# System Under Test: F508delCFTR (Homo sapiens, UniProt P13569, DEL508-508)
# Assay Explanation: Cell Surface Expression-Horse Radish Peroxidase (CSE-HRP) assay
# Test Settings: CFBE41o-F508delCFTR-HRP cells, cell surface expression, luminescence readout; 18-24 hours at 33° C.; highest concentration tested 20 μM, 8-point curve
# Procedure: Cell Surface Expression-Horse Radish Peroxidase (CSE-HRP) Assay: A cellular assay for measuring the F508delCFTR cell surface expression after correction with test compounds was developed in human lung derived epithelial cell line (CFBE41o-) (Veit G et al, (2012) Mol Biol Cell. 23(21): 4188-4202). […] The raw counts from the experiment are analyzed using Accelrys® Assay Explorer v3.3. […]
Reported Property: EC50 (µM)

- Compound: "COC(=O)c1ccc(C)c([C@H]2C[C@@H](NC(=O)C3(c4ccc5c(c4)OC(F)(F)O5)CC3)C[C@@H](c3ccccc3)O2)c1 (racemic) [Example 71]"
  System Under Test: "F508delCFTR (Homo sapiens, UniProt P13569, DEL508-508)"
  EC50 (µM): 1.31
- Compound: "COC(=O)c1cccc([C@H]2C[C@@H](NC(=O)C3(c4ccc5c(c4)OC(F)(F)O5)CC3)C[C@@H](c3ccccc3)O2)c1 (racemic) [Example 23]"
  System Under Test: "F508delCFTR (Homo sapiens, UniProt P13569, DEL508-508)"
  EC50 (µM): 0.85
- Compound: "O=C(N[C@@H]1CCO[C@H](c2ccc3c(c2)OCO3)C1)C1(c2ccc3c(c2)OC(F)(F)O3)CC1 [Example 15]"
  System Under Test: "F508delCFTR (Homo sapiens, UniProt P13569, DEL508-508)"
  EC50 (µM): 6.7
- Compound: "COC(=O)c1ccc([C@@H]2C[C@H](NC(=O)C3(c4ccc5c(c4)OC(F)(F)O5)CC3)CCO2)cc1 [Example 28]"
  System Under Test: "F508delCFTR (Homo sapiens, UniProt P13569, DEL508-508)"
  EC50 (µM): 3.31

P. O=C(O)c1ccc([C@H]2C[C@@H](NC(=O)C3(c4ccc5c(c4)OC(F)(F)O5)CC3)CCO2)cc1 (racemic) [Example 14]
Q. O=C(O)c1cccc([C@H]2C[C@@H](NC(=O)C3(c4ccc5c(c4)OC(F)(F)O5)CC3)C[C@@H](c3ccccc3)O2)c1 [Example 27]
So which one has the bigger EC50 here, P or Q ? # answer = label of selected item P
(P: 2.86 µM, Q: 0.28 µM)

====

# System Under Test: F508delCFTR (Homo sapiens, UniProt P13569, DEL508-508)
# Construct: expressed in transfected cells; host or cells: CFBE41o- (CFBE41o-F508delCFTR-HRP), doxycycline-inducible
# Assay Explanation: Cell Surface Expression-Horse Radish Peroxidase (CSE-HRP) assay
# Format: cell-based
# Test Settings: CFBE41o-F508delCFTR-HRP cells; maximum at any tested concentration, normalized to on-plate positive control (3 μM) and DMSO
# Procedure: Cell Surface Expression-Horse Radish Peroxidase (CSE-HRP) Assay: A cellular assay for measuring the F508delCFTR cell surface expression after correction with test compounds was developed in human lung derived epithelial cell line (CFBE41o-) (Veit G et al, (2012) Mol Biol Cell. 23(21): 4188-4202). […] The raw counts from the experiment are analyzed using Accelrys® Assay Explorer v3.3. […]
Reported Property: Maximum % activity (%)

- Compound: "COc1ccc([C@@H]2C[C@H](NC(=O)C3(c4ccc5c(c4)OC(F)(F)O5)CC3)C[C@H](c3ccc(C(=O)O)cc3)O2)cc1 (single isomer, unassigned) [Example 66]"
  Reported Property: "Maximum % activity"
  Value Observed: 79

I. Cc1cc(C(=O)O)ccc1[C@@H]1C[C@H](NC(=O)C2(c3ccc4c(c3)OC(F)(F)O4)CC2)CCO1 (stereo in doubt) [Example 42]
II. COC(=O)c1cccc([C@H]2C[C@H](NC(=O)C3(c4ccc5c(c4)OC(F)(F)O5)CC3)C[C@@H](c3ccccc3)O2)c1 (racemic) [Example 22]
Lab note: check whether I or II shows the higher recorded Maximum % activity. Selection: enter the item's label. II
